# tested.on: HDAC3 (Homo sapiens, UniProt O15379)
# Construct: purchased Enzo Life Sciences
# Sequence (O15379 whole entry): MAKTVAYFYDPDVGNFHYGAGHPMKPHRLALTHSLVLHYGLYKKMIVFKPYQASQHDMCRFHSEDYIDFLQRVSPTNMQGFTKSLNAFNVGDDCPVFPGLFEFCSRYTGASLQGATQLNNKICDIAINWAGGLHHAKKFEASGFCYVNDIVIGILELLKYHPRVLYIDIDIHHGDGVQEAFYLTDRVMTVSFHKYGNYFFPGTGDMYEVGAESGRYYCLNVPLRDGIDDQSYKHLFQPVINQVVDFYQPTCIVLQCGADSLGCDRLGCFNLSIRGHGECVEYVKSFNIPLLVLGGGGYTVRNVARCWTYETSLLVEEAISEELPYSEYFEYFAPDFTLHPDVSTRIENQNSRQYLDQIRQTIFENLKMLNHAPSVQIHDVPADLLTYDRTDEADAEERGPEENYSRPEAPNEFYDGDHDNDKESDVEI
# Sequence (O75376 395-489 partner limits assumed): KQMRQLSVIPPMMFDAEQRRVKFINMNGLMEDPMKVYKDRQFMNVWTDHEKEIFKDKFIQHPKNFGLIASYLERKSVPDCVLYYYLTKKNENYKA
# method.notes: HDAC Inhibition Screening Assay (FLUOR DE LYS Fluorimetric Drug Discovery Kit), HDAC3
# Type: biochemical
# conditions: 50 μM compound
# Experimental: The HDAC1/HDAC2/HDAC3 in vitro activities are detected by Enzo Life Sciences' HDAC1/HDAC2/HDAC3 Fluorimetric Drug Discovery Kit. The assay is based on the FLUOR DE LYS® Substrate and FLUOR DE LYS® Developer combination. The assay procedure has two steps. […] The signals of the test compounds (Compounds 1˜83; at concentrations of 2 μM, 10 μM and 50 μM) in 96-well plates are detected at 360 nm or 485 nm excitation and 460 nm or 530 nm emission with a Molecular Devices SpectraMax i3 Imaging Cytometer. […]
measurement.type: inhibition at 50 µM

Nc1ccccc1NC(=O)c1ccc(COc2ccc3c(c2)CC/C(=C\c2cc(C(F)(F)F)cc(C(F)(F)F)c2)C3=O)cc1 : < 50%
Cc1[nH]c2ccccc2c1CCNC1CCCc2cc(/C=C/C(=O)NO)ccc21 (centres unmarked) : > 80%

Each compound below has a recorded value; state its inhibition at 50 µM.
1. Nc1cc(F)ccc1NC(=O)/C=C/c1ccc(COc2ccc3c(c2)CCCC3=O)cc1
2. CCN(CC)c1ccc(C(=O)NC2CCc3cc(/C=C/C(=O)Nc4ccc(F)cc4N)ccc32)cc1 (centres unmarked)
3. O=C(CCCCNC(=O)c1ccc2c(c1)CC/C(=C\c1cc(C(F)(F)F)cc(C(F)(F)F)c1)C2=O)NO
4. O=C(/C=C/c1ccc2c(c1)CCC2NCCc1ccc(F)cc1)NO (centres unmarked)
5. Nc1cc(F)ccc1NC(=O)/C=C/c1ccc2c(c1)CCCC2OCc1cc(C(F)(F)F)cc(C(F)(F)F)c1 (centres unmarked)

### Response
["< 50%", "< 50%", "50 to 80%", "> 80%", "50 to 80%"]

----------
Give measured inhibition at 2 µM for each item. Keep answers brief.
# tested.on: HDAC2 (Homo sapiens, UniProt Q92769)
# Construct: purchased Enzo Life Sciences
# Sequence (Q92769 whole entry): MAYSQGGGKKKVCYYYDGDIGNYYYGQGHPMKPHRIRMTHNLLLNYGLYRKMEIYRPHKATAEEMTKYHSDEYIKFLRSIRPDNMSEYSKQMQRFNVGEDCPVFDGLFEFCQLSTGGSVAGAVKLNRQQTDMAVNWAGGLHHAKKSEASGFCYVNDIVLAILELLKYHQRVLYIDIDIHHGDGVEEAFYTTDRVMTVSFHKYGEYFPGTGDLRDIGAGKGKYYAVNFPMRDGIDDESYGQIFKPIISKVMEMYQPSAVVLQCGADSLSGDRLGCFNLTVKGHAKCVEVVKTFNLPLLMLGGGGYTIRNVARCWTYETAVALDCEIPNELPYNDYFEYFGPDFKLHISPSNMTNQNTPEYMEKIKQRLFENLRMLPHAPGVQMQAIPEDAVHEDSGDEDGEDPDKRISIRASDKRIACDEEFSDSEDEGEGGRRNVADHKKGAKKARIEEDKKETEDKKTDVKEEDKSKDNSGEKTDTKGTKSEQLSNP
# method.notes: HDAC Inhibition Screening Assay (FLUOR DE LYS Fluorimetric Drug Discovery Kit), HDAC2
# Type: biochemical
# conditions: 2 μM compound
# Method: The HDAC1/HDAC2/HDAC3 in vitro activities are detected by Enzo Life Sciences' HDAC1/HDAC2/HDAC3 Fluorimetric Drug Discovery Kit. The assay is based on the FLUOR DE LYS® Substrate and FLUOR DE LYS® Developer combination. The assay procedure has two steps. […] The signals of the test compounds (Compounds 1˜83; at concentrations of 2 μM, 10 μM and 50 μM) in 96-well plates are detected at 360 nm or 485 nm excitation and 460 nm or 530 nm emission with a Molecular Devices SpectraMax i3 Imaging Cytometer. […]

Nc1cc(F)ccc1NC(=O)c1ccc(COc2ccc3c(c2)CCC(Cc2cc(C(F)(F)F)cc(C(F)(F)F)c2)C3=O)cc1 (stereo not drawn) : < 50%
Cc1[nH]c2ccccc2c1CCNC1CCCc2cc(/C=C/C(=O)NO)ccc21 (stereo not drawn) : > 80%
O=C(/C=C/c1ccc2c(c1)CCC2NC(=O)OCc1cc(C(F)(F)F)cc(C(F)(F)F)c1)NO (stereo not drawn) : < 50%
COc1ccc(N2C(=O)CN(C3CCc4cc(/C=C/C(=O)NO)ccc43)C2=O)cc1 (stereo not drawn) : > 80%
Nc1cc(F)ccc1NC(=O)CCCCC(=O)Nc1ccc2c(c1)CC/C(=C\c1cc(C(F)(F)F)cc(C(F)(F)F)c1)C2=O : < 50%
O=C(/C=C/c1ccc2c(c1)CCC2OCc1cc(C(F)(F)F)cc(C(F)(F)F)c1)NO (stereo not drawn) : 50 to 80%

Could you tell me inhibition at 2 µM for each of these molecules? They are listed below.
1. O=C(/C=C/c1ccc(COc2ccc3c(c2)CCCC3=O)cc1)NO
2. Nc1cc(F)ccc1NC(=O)/C=C/c1ccc2c(c1)CCCC2OCc1cc(C(F)(F)F)cc(C(F)(F)F)c1 (stereo not drawn)
3. CCN(CC)c1ccc(C(=O)NC2CCc3cc(/C=C/C(=O)NCCCCCC(=O)NO)ccc32)cc1 (stereo not drawn)
4. CN(C(=O)OCc1cc(C(F)(F)F)cc(C(F)(F)F)c1)C1CCc2ccc(/C=C/C(=O)NO)cc21 (stereo not drawn)
5. COc1ccc(CCNC2CCc3cc(/C=C/C(=O)Nc4ccc(F)cc4N)ccc32)cc1 (stereo not drawn)
6. O=C(/C=C/c1ccc2c(c1)CC/C(=C\c1cc(C(F)(F)F)cc(C(F)(F)F)c1)C2=O)NO

### Response
1. > 80%
2. < 50%
3. > 80%
4. 50 to 80%
5. 50 to 80%
6. < 50%

Dear reader, for each entry below, please note its inhibition at 2 µM.
1. O=C(/C=C/c1ccc2c(c1)CC/C(=C\c1cc(C(F)(F)F)cc(C(F)(F)F)c1)C2=O)NCCCCCC(=O)NO
2. O=C(CCCCCCC(=O)Nc1ccc2c(c1)CC/C(=C\c1cc(C(F)(F)F)cc(C(F)(F)F)c1)C2=O)NO
3. Nc1cc(F)ccc1NC(=O)CCCCC(=O)N1CCN(C(=O)c2ccc3c(c2)CC/C(=C\c2cc(C(F)(F)F)cc(C(F)(F)F)c2)C3=O)CC1

### Response
1: > 80%; 2: 50 to 80%; 3: < 50%

----------
# tested.on: HDAC3 (Homo sapiens, UniProt O15379)
# Construct: purchased Enzo Life Sciences
# method.notes: HDAC Inhibition Screening Assay (FLUOR DE LYS Fluorimetric Drug Discovery Kit), HDAC3
# Assay type: biochemical
# conditions: 50 μM compound
Task for the reader: assign each of the following compounds its reported inhibition at 50 µM.

Reference set (3 entries):
COc1ccc2c(c1)CCCC2NC(=O)CCCCCCC(=O)Nc1ccc(F)cc1N (stereo not shown) [Compound 47] : > 80%
O=C(/C=C/c1ccc2c(c1)CCC2NC(=O)CCCCCCC(=O)NO)Nc1cc(Cl)cc(Cl)c1 (stereo not shown) [Compound 42] : 50 to 80%
O=C(/C=C/c1ccc2c(c1)CCC2NS(=O)(=O)c1cc(C(F)(F)F)cc(C(F)(F)F)c1)NO (stereo not shown) [Compound 18] : > 80%

Quick one: give me inhibition at 50 µM for each item below, same order please.
1. O=C(CCCCCCC(=O)Nc1ccc2c(c1)CC/C(=C\c1cc(C(F)(F)F)cc(C(F)(F)F)c1)C2=O)NO [Compound 4]
2. O=C(/C=C/c1ccc(COc2ccc3c(c2)CCCC3=O)cc1)NO [Compound 70]

### Response
1. > 80%
2. > 80%

# batch: return inhibition at 50 µM for each of the 6 compounds below
1. O=C(CCCCCCC(=O)Nc1ccc2c(c1)CCC/C2=N\O)NO [Compound 3]
2. O=C(/C=C/c1ccc(CNC(=O)COc2ccc3c(c2)CC/C(=C\c2cc(C(F)(F)F)cc(C(F)(F)F)c2)C3=O)cc1)NO [Compound 75]
3. Nc1cc(F)ccc1NC(=O)CCCCCCC(=O)NC1CCc2cc(Br)ccc21 (stereo not shown) [Compound 39]
4. O=C(CCCCCC(=O)Nc1ccc2c(c1)CC/C(=C\c1cc(C(F)(F)F)cc(C(F)(F)F)c1)C2=O)NO [Compound 12]
5. Nc1cc(F)ccc1NC(=O)CCCCC(=O)Nc1ccc2c(c1)CC/C(=C\c1cc(C(F)(F)F)cc(C(F)(F)F)c1)C2=O [Compound 13]
6. Nc1cc(F)ccc1NC(=O)c1ccc(COc2ccc3c(c2)CC(Cc2cc(C(F)(F)F)cc(C(F)(F)F)c2)C3=O)cc1 (stereo not shown) [Compound 76]

### Response
1. > 80%
2. 50 to 80%
3. 50 to 80%
4. > 80%
5. < 50%
6. < 50%

List reported inhibition at 50 µM for each of these compounds:
1. Cc1[nH]c2ccccc2c1CCNC1CCc2cc(/C=C/C(=O)Nc3ccc(F)cc3N)ccc21 (stereo not shown) [Compound 59]
2. O=C(/C=C/c1ccc2c(c1)CCCC2NCCc1c[nH]c2ccccc12)NO (stereo not shown) [Compound 61]

### Response
1. > 80%
2. > 80%

Dear reader, for each entry below, please note its inhibition at 50 µM.
1. O=C(CCCCCCC(=O)NC1CCc2cc(Br)ccc21)NO (stereo not shown) [Compound 40]
2. COc1ccc(S(=O)(=O)NC2CCc3cc(/C=C/C(=O)Nc4ccc(F)cc4N)ccc32)cc1 (stereo not shown) [Compound 19]
3. Nc1cc(F)ccc1NC(=O)CCCCC(=O)N1CCN(C(=O)c2ccc3c(c2)CC/C(=C\c2cc(C(F)(F)F)cc(C(F)(F)F)c2)C3=O)CC1 [Compound 82]

### Response
1: > 80%; 2: < 50%; 3: 50 to 80%
